- Test system: NCI-H522 lung
- assay_explanation: NCI-60 one-dose screen, 48 h
- condition: 10 µM unless noted
Compounds without any hit were thinned out: in the full panel of roughly 83,000, 20% have a hit. Calls of active or inactive are those of the source. The calls were made as follows: active = growth percent below 10; inactive = the rest.
The reply should be one of these categories: active, inactive

Which outcome was entered for the compound COc1ccc(C2C(C#N)=C(/N=C/c3ccc(Cl)cc3)Oc3c2sc2c(C)cccc32)cc1 (centres undefined) in this test?
active

Which outcome was entered for the compound Cc1[nH]c(C(=O)Nc2ccc(S(=O)(=O)N3CCCCC3)cc2OCCOCCOCCOCCOCCOCCOCCOCCOCCOc2cc(S(=O)(=O)N3CCCCC3)ccc2NC(=O)c2[nH]c(C)c3c2CCCCC3=O)c2c1C(=O)CCCC2 in this test?
active

Which outcome was entered for the compound Cc1ccc([C@H]2c3[nH]c4ccccc4c3C[C@H]3C(=O)N(CCCCCCC(=O)NO)CC(=O)N23)s1 in this test?
inactive

Pending compound:
Which outcome was entered for the compound N#C/C(=C\c1ccc(-c2ccc(Cl)c(Cl)c2)o1)C(=O)Nc1ncc(Cc2ccc(Cl)cc2)s1 in this test?
inactive

* * *

- System: NCI-H522 lung
- assay_explanation: NCI-60 one-dose screen, 48 h (100 = growth as untreated, 0 = no growth, -100 = all killed)
- condition: 10 µM unless noted
Compounds without any hit were thinned out: in the full panel of roughly 83,000, 20% have a hit.
Label rule, in plain words: growth of 70% and up is label 1, under 70% is label 0.

Solved cases below.
Quick check, growth >= 70%? Cc1ccc(S(=O)(=O)c2nc(-c3ccc(F)cc3)oc2S(C)(=O)=O)cc1
label 0

Quick check, growth >= 70%? CCCCCCNC(=O)Oc1ccc(/C(=C(/C)c2ccc(Cl)cc2)c2ccc(OCCN3CCCCCC3)cc2)cc1
label 1

Quick check, growth >= 70%? N#C/C(=N\Nc1ccc(F)cc1)C(=O)Nc1cc(-c2ccccc2)nn1-c1ccccc1
label 0

Quick check, growth >= 70%? O=C(/C=C/c1ccc(Cl)c(Cl)c1)Nc1ncc(Cc2ccc(Cl)c(Cl)c2)s1
label 0

Quick check, growth >= 70%? CCC(=C(c1ccc(OCCN2CCCCCC2)cc1)c1ccc(OCCN2CCCCCC2)cc1)c1ccc(Cl)cc1
label 0

Quick check, growth >= 70%? O=S(=O)(NCCCNc1nccc(-c2[nH]c(-c3ccccc3)nc2-c2ccc(F)c(O)c2)n1)c1cccc2ccccc12
label 0

Quick check, growth >= 70%? NC(=O)n1c(=O)n(-c2cccc(C(F)(F)F)c2)c(=O)c2cc(-c3ccc(F)cc3F)ccc21
label 0

Quick check, growth >= 70%? CCc1cc(O)ccc1Nc1cc(-c2ccc(-n3cccn3)cc2)[nH]n1
label 0

Quick check, growth >= 70%? CCn1c2ccc(/C=N/N(C)S(=O)(=O)CCN(C)C)cc2c2cc(/C=N/N(C)S(=O)(=O)CCN(C)C)ccc21
label 0

Quick check, growth >= 70%? COC(=O)c1ccc(NC2=C(Cl)C(=O)C(C)=C(C)C2=O)cc1
label 0

Others:
Quick check, growth >= 70%? Cn1cc(-c2nn3cc(-c4ccncc4)nc3s2)c2cc(F)ccc21
label 1

Quick check, growth >= 70%? COc1ccc2c(c1)C=CC1(O2)Oc2ccc(OC)cc2C=C1C (stereo not given)
label 0

Quick check, growth >= 70%? C/C(=N/N)c1nnn(-c2ccc(Br)cc2)c1C
label 1

Quick check, growth >= 70%? O=C(N/N=C\c1ccc([N+](=O)[O-])cc1)c1ccc2nc(-c3ccc(Br)cc3)[nH]c2c1
label 0

Quick check, growth >= 70%? O=C(/C=C/c1csc(Br)n1)NO
label 0

Quick check, growth >= 70%? C=C(C)[C@@H]1CC[C@]2(C(=O)NC3CCCCC3)CC[C@]3(C)[C@H](CC[C@@H]4[C@@]5(C)CC[C@H](N)C(C)(C)[C@@H]5CC[C@]43C)[C@@H]12
label 1

* * *

- System: HCT-15 colon
- assay_explanation: NCI-60 one-dose screen, 48 h (100 = growth as untreated, 0 = no growth, -100 = all killed)
- condition: 10 µM unless noted
- Experimental: Growth inhibition of the HCT-15 human tumor cell line is measured as a screen for anti-cancer activity. Cells are grown in 96 well plates and exposed to the test compound for 48 hours. Compounds are tested at a single concentration, which is 10^-5 M for most compounds. The reported endpoint is percent growth (GI% or GIPRCNT), where numbers from 0 - 100% represent growth inhibition, and numbers from -100% - 0 represent cell death. For example, a value of 40 represents 60% growth inhibition. […]
Compounds without any hit were thinned out: in the full panel of roughly 83,000, 20% have a hit.
Measured growth by item
Report only the number, with the unit % understood.

For the molecule shown here, COc1ccc(/C=N/NC(=O)c2c(N)nn(C)c2Nc2ccccc2)cc1Oc1ccccc1 , give the reported growth.
87.7

Others:
For the molecule shown here, C#Cc1nc(C(=O)NCCCCCCC(=O)NO)cs1 , give the reported growth.
41.3

For the molecule shown here, C=C(C)[C@@H]1CC[C@]2(C(=O)NC3CCCCC3)CC[C@]3(C)[C@H](CC[C@@H]4[C@@]5(C)CC[C@H](N)C(C)(C)[C@@H]5CC[C@]43C)[C@@H]12 , give the reported growth.
39

For the molecule shown here, CC1(C)C=Cc2cc(/C(N)=N/C(N)=N/c3nc4ccccc4s3)ccc2O1 , give the reported growth.
57.7

For the molecule shown here, CCC(=C(c1ccc(OCCN2CCCCCC2)cc1)c1ccc(OCCN2CCCCCC2)cc1)c1ccc(Cl)cc1 , give the reported growth.
-58.9

For the molecule shown here, C/C(CC1(O)C(=O)Nc2ccccc21)=N\O (centres undefined) , give the reported growth.
95.4

* * *

Measured growth by item
- Tested on: RXF 393 renal
- assay_explanation: NCI-60 one-dose screen, 48 h (100 = growth as untreated, 0 = no growth, -100 = all killed)
- condition: 10 µM unless noted
- Experimental: Cells are grown in 96 well plates and exposed to the test compound for 48 hours. Compounds are tested at a single concentration, which is 10^-5 M for most compounds. The reported endpoint is percent growth (GI% or GIPRCNT), where numbers from 0 - 100% represent growth inhibition, and numbers from -100% - 0 represent cell death. For example, a value of 40 represents 60% growth inhibition. A value of 0 means no net growth occurred over the course of the experiment. […]
This is part of a sample that, as a whole, favours compounds with a hit. Of some 83,000 tested, about 20% had one in any assay.
Report only the number, with the unit % understood.

Worked cases, growth given:
For the compound shown here, CCNC(=O)Oc1ccc(/C(=C(/C)c2ccc(Cl)cc2)c2ccc(OCCN3CCCCCC3)cc2)cc1 , give the reported growth.
-10.3

For the compound shown here, CN(C)S(=O)(=O)c1ccc(-c2nc(C(Cl)Cl)nc3cc(-c4ccccc4)nn23)cc1 , give the reported growth.
84.4

For the compound shown here, CC1(C)CC[C@]2(C(=O)NCCCCCCN(CCCN)CCCN)CC[C@]3(C)C(=CC[C@@H]4[C@@]5(C)CC[C@H](O)C(C)(C)[C@@H]5CC[C@]43C)[C@@H]2C1 , give the reported growth.
113

For the compound shown here, O=c1c2cc(-c3ccc(F)cc3F)ccc2n(Nc2ccccc2)c(=O)n1-c1cccc(C(F)(F)F)c1 , give the reported growth.
5.77

For the compound shown here, COc1ccc(OC)c(CCn2cncc2-c2c[nH]c3ccc(Cl)cc23)c1 , give the reported growth.
62.8

Others:
For the compound shown here, N#Cc1cnc2ccc(-c3cnc4n[nH]nc4c3)cc2c1N1CCc2cc(F)c(Cl)cc21 , give the reported growth.
-22.2

For the compound shown here, COc1ccc(/C(=N\NC(N)=S)c2ccc(Cl)cc2)cc1OC , give the reported growth.
25.1

For the compound shown here, O=C(O)c1ccc(-n2c(=O)n(-c3cccc(C(F)(F)F)c3)c(=O)c3cc(-c4ccc(F)cc4F)ccc32)cc1 , give the reported growth.
-1.85

For the compound shown here, Cc1ccc([C@H]2c3[nH]c4ccccc4c3C[C@H]3C(=O)N(CCCCCCC(=O)NO)CC(=O)N23)s1 , give the reported growth.
59.7

For the compound shown here, N#Cc1c(-c2cccs2)cc(-c2cnccn2)nc1SCC(=O)N/N=C/c1ccc(Cl)cc1 , give the reported growth.
92.2

* * *

- System: 786-0 renal
- assay_explanation: NCI-60 one-dose screen, 48 h (100 = growth as untreated, 0 = no growth, -100 = all killed)
- condition: 10 µM unless noted
- Experimental: Cells are grown in 96 well plates and exposed to the test compound for 48 hours. Compounds are tested at a single concentration, which is 10^-5 M for most compounds. The reported endpoint is percent growth (GI% or GIPRCNT), where numbers from 0 - 100% represent growth inhibition, and numbers from -100% - 0 represent cell death. For example, a value of 40 represents 60% growth inhibition. A value of 0 means no net growth occurred over the course of the experiment. […]
Compounds without any hit were thinned out: in the full panel of roughly 83,000, 20% have a hit.
Measured growth by item
Report only the number, with the unit % understood.

For the compound shown here, Nc1ncc(-c2ccc3ncnc(NCc4ccccc4)c3c2)cn1 , give the reported growth.
31.3

For the compound shown here, COc1ccc(/C=N/NC(=O)c2c(N)nn(C)c2Nc2ccccc2)cc1 , give the reported growth.
58

For the compound shown here, Cc1ccc(/C=N/Nc2nc(Nc3ccccc3)nc(Nc3ccc(S(N)(=O)=O)cc3)n2)cc1 , give the reported growth.
46.9

For the next question, use this compound.
For the compound shown here, CC(C)(C)Nc1nc2c(OCCc3ccccc3)cccn2c1-c1ccc([N+](=O)[O-])cc1 , give the reported growth.
75.1
